Cited source: patent US20190085024A1

- measured_on: Cat S (Homo sapiens, UniProt P25774)
- Sequence (P25774 115-331): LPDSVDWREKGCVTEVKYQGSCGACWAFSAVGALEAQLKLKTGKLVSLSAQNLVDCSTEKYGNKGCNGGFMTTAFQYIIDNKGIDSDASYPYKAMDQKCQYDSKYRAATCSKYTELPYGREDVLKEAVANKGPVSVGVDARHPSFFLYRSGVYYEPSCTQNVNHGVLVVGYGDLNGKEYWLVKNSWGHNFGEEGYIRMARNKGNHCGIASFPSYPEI
observed_property: Ki (nM)

molecule="CC(NC(=O)[C@H](Cc1ccccc1)NC(=O)C(c1ccccc1)c1ccccc1)C(=O)C(=O)N[C@@H](Cc1ccccc1)C(=O)NC(C)(C)C(N)=O (stereo partly drawn)" measured_on="Cat S (Homo sapiens, UniProt P25774)" number=0.8
molecule="CC(NC(=O)C(Cc1cccc(C(F)(F)F)c1)NC(=O)Cc1ccccc1)C(=O)C(=O)NC(Cc1ccccc1)C(=O)NC(C)(C)C(N)=O (stereo not drawn)" measured_on="Cat S (Homo sapiens, UniProt P25774)" number=39.9
molecule="CC(NC(=O)C(Cc1ccccc1)NC(=O)Cc1ccccc1)C(=O)C(=O)NC(Cc1ccccc1)C(=O)NC(C)(C)C(=O)NCCN1CCOCC1 (stereo not drawn)" measured_on="Cat S (Homo sapiens, UniProt P25774)" number=200

---

- measured_on: Calpain
- procedure_summary: Calpain enzyme assay
- test_conditions: Ki by Morrison equation; pH 7.5, 5 mM CaCl2
pKi: −log10 of the molar value.
Quick rule: pKi of at least 8 means criterion met, below that means criterion not met.

molecule="CC[C@H](C)C(NC(=O)[C@H](CC#N)NC(=O)Cc1ccccc1)C(=O)C(=O)NCC(=O)N[C@@H](Cc1ccc2ccccc2c1)C(N)=O (stereo partly drawn)" answer_label="criterion not met"
molecule="CC(NC(=O)C(Cc1ccc(F)cc1)NC(=O)Cc1ccccc1)C(=O)C(=O)NC(Cc1ccccc1)C(=O)NC(C)(C)C(N)=O (stereo not drawn)" answer_label="criterion not met"
molecule="CC(NC(=O)C(Cc1ccccc1)NC(=O)Cc1ccccc1)C(=O)C(=O)NC(Cc1ccccc1)C(=O)NC(Cc1ccc2ccccc2c1)C(N)=O (stereo not drawn) [PHELIX220]" answer_label="criterion not met"
molecule="CC(C)C[C@H](NC(=O)C(c1ccccc1)c1ccccc1)C(=O)NC(C)C(=O)C(=O)NCC(=O)N[C@@H](Cc1ccc2ccccc2c1)C(N)=O (stereo partly drawn)" answer_label="criterion not met"
molecule="CC(C)CC(=O)NC(Cc1ccccc1)C(=O)NC(C)C(=O)C(=O)NC(Cc1ccccc1)C(=O)NC(C)(C)C(N)=O (stereo not drawn)" answer_label="criterion not met"
molecule="CCC(C)C(NC(=O)C(CC1CC1)NC(=O)OCc1ccccc1)C(=O)C(=O)NCC(=O)NC(Cc1ccc2ccccc2c1)C(N)=O (stereo not drawn)" answer_label="criterion met"
molecule="CCC(C)C(NC(=O)C(CC(C)C)NC(=O)Cc1cccnc1)C(=O)C(=O)NCC(=O)N(C)C(Cc1ccccc1)C(N)=O (stereo not drawn)" answer_label="criterion met"
molecule="CCC(C)C(NC(=O)C(CC(C)C)NC(=O)OCc1ccccc1)C(=O)C(=O)NCC(=O)NC(Cc1ccc2ccccc2c1)C(N)=O (stereo not drawn) [PHELIX257]" answer_label="criterion met"
molecule="CC(NC(=O)C(Cc1ccccc1)NC(=O)Cc1ccccc1)C(=O)C(=O)NC(Cc1ccc(F)cc1)C(=O)NC(Cc1ccc(-c2ccccc2)cc1)C(N)=O (stereo not drawn)" answer_label="criterion not met"
molecule="CC(C)CC(NC(=O)OCc1ccccc1)C(=O)NC(C)C(=O)C(=O)NCC(=O)NC(Cc1ccccc1)C(=O)NCCc1ccccc1 (stereo not drawn)" answer_label="criterion not met"

---

- measured_on: Cat K (Homo sapiens)
- Sequence (P43235 115-329): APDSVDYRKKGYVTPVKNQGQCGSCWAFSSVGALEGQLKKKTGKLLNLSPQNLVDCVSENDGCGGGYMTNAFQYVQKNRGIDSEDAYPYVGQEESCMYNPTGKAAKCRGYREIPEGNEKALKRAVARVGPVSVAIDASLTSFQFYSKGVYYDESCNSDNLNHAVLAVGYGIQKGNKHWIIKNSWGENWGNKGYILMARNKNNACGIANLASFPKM
Doc: threshold 20 nM (exclusive). Items with Ki beneath it return Criterion met; others return Criterion not met.

compound="CC(NC(=O)C(Cc1cccc(C(F)(F)F)c1)NC(=O)Cc1ccccc1)C(=O)C(=O)NC(Cc1ccccc1)C(=O)NC(C)(C)C(N)=O (stereo not drawn)" answer_label="Criterion not met"
compound="CC(NC(=O)C(Cc1ccccc1)NC(=O)Cc1ccccc1)C(=O)C(=O)NC(Cc1ccccc1)C(=O)NC(C)(C)C(=O)NCCN1CCOCC1 (stereo not drawn)" answer_label="Criterion not met"
compound="CC(NC(=O)C(Cc1ccccc1)NC(=O)Cc1ccccc1)C(=O)C(=O)NC(Cc1ccccc1)C(=O)NC(Cc1ccc2ccccc2c1)C(N)=O (stereo not drawn) [PHELIX220]" answer_label="Criterion not met"
compound="CC(NC(=O)C(Cc1ccccc1)NC(=O)c1cccc(F)c1)C(=O)C(=O)NC(Cc1ccccc1)C(=O)NC(C)(C)C(N)=O (stereo not drawn)" answer_label="Criterion not met"
compound="CC(C)CC(NC(=O)OCc1ccccc1)C(=O)NC(C)C(=O)C(=O)NCC(=O)NC(Cc1ccccc1)C(=O)NCCc1ccccc1 (stereo not drawn)" answer_label="Criterion not met"
compound="CC[C@H](C)[C@H](NC(=O)C(=O)C(Cc1ccccc1)NC(=O)C(Cc1ccccc1)NC(=O)Cc1ccccc1)C(=O)N1CCCC1C(N)=O (stereo partly drawn)" answer_label="Criterion met"
